readout-name: logP

Some molecules with known logP results, for comparison:
N#Cc1ccc(C(=O)O)cc1 | 1.55
Oc1cccc(C(F)(F)F)c1 | 2.61
O=C1CCC(=O)N1c1cc(Cl)c(Cl)c(Cl)c1 | 2.92
CC(=O)Oc1cccc(O)c1 | 1.26

(I) O=C1CCC(=O)N1c1cc(Cl)cc(Cl)c1
(II) Cc1cc(C)cc(N2C(=O)CCC2=O)c1
Incoming: Quick check, higher logP between I and II ? Respond using the label that marks the chosen record.
Outgoing: I

(a) O=C(c1ccccc1)c1ccc(O)cc1
(b) O=C1CCC(=O)N1c1ccc(C(F)(F)F)cc1
Incoming: Exercise: compare a and b ; which one has the greater logP? Select an item and report its label.
Outgoing: a
(a: 2.91, b: 1.3)

(A) O=C(O)c1cccc(Br)c1
(B) CCCc1cccc(N2C(=O)CCC2=O)c1
Incoming: For the pair A and B , which entry has the numerically smaller recorded logP? Use the label to indicate which entry you chose.
Outgoing: B

* * *

readout-name: logP

Reference set (5 entries):
O=C1CCC(=O)N1c1cc(Cl)cc(Cl)c1Cl | 2.44
O=C1CCC(=O)N1c1cc(Br)cc(Br)c1 | 2.12
Cc1ccc(C(=O)O)cc1 | 2.43
O=C(O)c1cccc(F)c1 | 2.05
Cc1cccc(Nc2ccccc2C(=O)O)c1 | 4.74

(A) O=C1CCC(=O)N1c1cc(C(F)(F)F)cc(C(F)(F)F)c1
(B) O=C(O)c1ccccc1Nc1cccc([N+](=O)[O-])c1
(C) O=C1CC(c2cccc(C(F)(F)F)c2)C(=O)N1 (stereo not drawn)
Incoming: Sort (3 molecules) by logP: min first. Form entry: ranked labels (order as requested).
Outgoing: C, A, B
(C: 1.35, A: 2.25, B: 4.42)

The reported numbers originate from the SangsterLogP compilation.
